Source: the supplement of paper PMC10065799

- target: MERTK (UniProt Q12866)
- Sequence (Q12866 whole entry, looked up): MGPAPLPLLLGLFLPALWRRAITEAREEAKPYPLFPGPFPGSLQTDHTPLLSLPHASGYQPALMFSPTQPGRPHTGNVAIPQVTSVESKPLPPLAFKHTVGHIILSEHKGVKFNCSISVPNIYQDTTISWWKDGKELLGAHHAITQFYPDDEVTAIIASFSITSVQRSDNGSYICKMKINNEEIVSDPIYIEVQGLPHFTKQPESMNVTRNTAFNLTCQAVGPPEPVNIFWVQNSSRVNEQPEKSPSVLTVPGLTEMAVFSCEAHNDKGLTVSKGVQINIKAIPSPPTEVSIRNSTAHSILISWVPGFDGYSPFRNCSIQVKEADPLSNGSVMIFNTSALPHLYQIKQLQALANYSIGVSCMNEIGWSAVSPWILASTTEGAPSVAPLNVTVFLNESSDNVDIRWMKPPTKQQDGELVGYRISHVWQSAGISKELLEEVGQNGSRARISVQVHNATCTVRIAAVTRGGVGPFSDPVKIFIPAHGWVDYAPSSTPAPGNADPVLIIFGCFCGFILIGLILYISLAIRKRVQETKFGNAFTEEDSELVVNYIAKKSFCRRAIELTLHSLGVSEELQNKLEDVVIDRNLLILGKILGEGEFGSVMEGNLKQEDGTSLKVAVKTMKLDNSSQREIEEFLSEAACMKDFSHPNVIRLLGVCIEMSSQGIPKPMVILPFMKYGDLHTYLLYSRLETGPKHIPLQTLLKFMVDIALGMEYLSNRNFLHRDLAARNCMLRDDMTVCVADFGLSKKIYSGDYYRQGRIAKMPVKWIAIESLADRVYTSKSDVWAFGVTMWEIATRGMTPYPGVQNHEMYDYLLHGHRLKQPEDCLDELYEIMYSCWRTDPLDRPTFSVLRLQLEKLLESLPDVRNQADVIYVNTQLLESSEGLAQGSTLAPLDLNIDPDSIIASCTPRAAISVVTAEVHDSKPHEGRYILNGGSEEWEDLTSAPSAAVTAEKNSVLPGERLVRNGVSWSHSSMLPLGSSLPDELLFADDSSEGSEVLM
- protocol-text: phosphorylation enrichment, bacterial display (enrichment ratio); higher = better substrate or ligand; peptides without Tyr show the background;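 note: 11-residue human phosphosite peptides and single-mutation variants displayed on the E. coli surface, counted by deep sequencing, each peptide's frequency after selection divided by its frequency in the unselected input library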;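 note: frequency after pTyr selection over input frequency; kinase dosed for 20-30% of maximal phosphorylation in three min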
observation-type: phosphorylation enrichment
Answers are plain numbers.

Known phosphorylation enrichment results, listed for orientation:
- AGTILYHAHLD [ASS1_Y291]: 0.561
- SFTDPYAQPPL [KMT2D_Y2378_YF]: 0.468
- LPKEQYLCTKE [AFG3L2_Y614_Y616C]: 0.409

Please state, for each entry, its recorded phosphorylation enrichment.
1. FEPWVYSFSFE [PRKDC_Y647_YF]
2. ETWHNYHKFDS [MATR3_Y243_S240W]
3. WQQQSYLDLGI [CTNNB1_Y30_S33L]
4. INITIYGKTFR [EFHC1_Y177]
5. TFRPPYYHRDC [HGD_Y333_N337D]

Solution:
1.66
0.458
0.511
0.439
0.499

Please state, for each entry, its recorded phosphorylation enrichment.
1. IENKLCGMSDP [RET_Y1062_Y1062C]
2. TVLGEYASPKG [CYP24A1_Y407_L409S]

Solution:
[0.428, 0.513]

###

- Tested on: Fer (mouse)
- protocol-text: phosphorylation enrichment, bacterial display (enrichment ratio); higher = better substrate or ligand; peptides without Tyr show the background
observation-type: phosphorylation enrichment
Numbers only.

- TLQSMFGCDVG [HLA-B_Y123_Y123F]: 0.523
- CTTIHYNFMCN [TP53_Y234_Y236F]: 0.516
- VAVTKYCKEEL [ATP7B_Y1078]: 0.494
- IFQASYFRRGD [LTK_Y676_R673Q_YF]: 0.416
- LVRAFYCERRR [CARD11_Y970]: 0.624

Please state, for each entry, its recorded phosphorylation enrichment.
1. ELANYYKLHHI [AK7_Y391]
2. YLEKYYKFGSR [NNMT_Y25]
3. NYADPYRQLPY [CTNND2_Y503_Q507P]
4. KVWGIYDCQQP [CYP3A7_Y75]
5. PEVRRHVLPLN [RPE65_Y368_Y368H]
6. FSGLAYTMERS [GLUD1_Y512_H507Y_YF]

Solution:
[0.629, 0.508, 0.469, 2.48, 0.843, 0.361]

###

Assignment: determine reported phosphorylation enrichment for the given sequences.
- target: EPHB2 (UniProt P29323)
- Sequence (P29323 whole entry, looked up): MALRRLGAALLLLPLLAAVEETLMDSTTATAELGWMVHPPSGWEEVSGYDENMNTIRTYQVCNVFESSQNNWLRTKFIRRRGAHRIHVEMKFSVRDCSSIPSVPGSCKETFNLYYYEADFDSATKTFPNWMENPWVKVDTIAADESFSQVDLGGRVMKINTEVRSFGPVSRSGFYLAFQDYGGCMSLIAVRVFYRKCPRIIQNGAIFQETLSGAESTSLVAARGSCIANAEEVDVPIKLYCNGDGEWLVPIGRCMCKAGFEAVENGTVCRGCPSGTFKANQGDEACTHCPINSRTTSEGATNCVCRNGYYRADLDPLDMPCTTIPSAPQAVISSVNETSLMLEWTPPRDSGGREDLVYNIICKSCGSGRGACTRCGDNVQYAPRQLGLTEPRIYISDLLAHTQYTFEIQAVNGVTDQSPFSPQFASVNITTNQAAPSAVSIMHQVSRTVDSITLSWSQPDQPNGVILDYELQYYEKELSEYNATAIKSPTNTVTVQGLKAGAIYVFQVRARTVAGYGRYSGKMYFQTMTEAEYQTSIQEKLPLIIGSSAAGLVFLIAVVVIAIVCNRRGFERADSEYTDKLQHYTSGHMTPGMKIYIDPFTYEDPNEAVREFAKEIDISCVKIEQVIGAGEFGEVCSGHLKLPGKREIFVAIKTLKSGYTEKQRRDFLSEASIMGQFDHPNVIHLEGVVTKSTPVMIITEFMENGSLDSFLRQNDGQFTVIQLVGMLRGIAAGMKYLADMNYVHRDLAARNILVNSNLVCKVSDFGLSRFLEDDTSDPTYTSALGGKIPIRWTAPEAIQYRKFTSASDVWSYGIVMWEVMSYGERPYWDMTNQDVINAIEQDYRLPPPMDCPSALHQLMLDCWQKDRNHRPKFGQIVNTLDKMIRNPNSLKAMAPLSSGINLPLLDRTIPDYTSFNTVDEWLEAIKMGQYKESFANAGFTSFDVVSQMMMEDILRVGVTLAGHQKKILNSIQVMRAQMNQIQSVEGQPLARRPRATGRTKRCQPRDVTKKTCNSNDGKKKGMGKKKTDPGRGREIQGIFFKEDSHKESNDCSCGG
- protocol-text: phosphorylation enrichment, bacterial display (enrichment ratio); higher = better substrate or ligand; peptides without Tyr show the background

* LEITWYPFDVE [RIPOR2_Y316] | 1.05
* TFRPPYYHRDC [HGD_Y333_N337D] | 0.734
* KAIDMYLMGCF [GABRB2_Y308] | 0.551
* ISGGGYRARPA [FGB_Y71] | 0.308
* FSCLPYGRLAF [SLC52A2_Y305_YF] | 0.55
* SFTDPYAQPPL [KMT2D_Y2378_YF] | 0.527
* PYRFIYMAVQH [PTPN11_Y515_Q510P] | 2.45
* DRLASSLDKVR [KRT10_Y160_Y160S] | 0.364
* FAREGYSALPQ [SARS2_Y52_YF] | 0.466
* LDVDVYGPSVP [NUBPL_Y109] | 0.536

Please state, for each entry, its recorded phosphorylation enrichment.
1. VITDFYVDMKF [MPP4_Y567_YF]
2. SLGKGYYDGGC [MC4R_Y35_S36Y]
3. AESPEYVHMYT [FAM111A_Y511]
4. TVQIMYGCDVG [HLA-A_Y123_I119V]
5. FISVGYVDDTQ [HLA-B_Y51]
6. KELAKYFKLHH [AK7_Y390_N389K_YF]

Solution:
1: 0.824; 2: 0.591; 3: 0.491; 4: 0.773; 5: 0.593; 6: 0.459
